test system: MS2 coat protein; assay: apparent Kd, MS2 coat protein; higher = weaker binding; RNA-MaP array; conditions: designed as: OFF switch for flavin mononucleotide; no ligand
Property label: apparent Kd (nM)
The reply should be a number in nM, with the unit left off.

Please review the entries below; each comes with its answer.
[[record]]
sequence_text = "AAGCUCUCAGGAUAUACAUGAGGAUCACCCAUGUGGUCGUAUUUAAAGUGGAGCAGCAGUAGAAGGGAGGCGAC"
property_label = "apparent Kd"
numeric_result = 24.5

[[record]]
sequence_text = "GGACACGAAGGAUAUACCCAAUGCCUGAGAAAACUCAUGGGACAUGAGGAUCACCCAUGUAGAAGGUCGUUAAA"
property_label = "apparent Kd"
numeric_result = 558

[[record]]
sequence_text = "UUCCUUGUCGAGAAGGAAUGGCACUUGAGGCGAUUAGGAUAUCGAUACAUGAGGAUCACCCAUGUUGUGUCUCAUAGUAUGACA"
property_label = "apparent Kd"
numeric_result = 12

[[record]]
sequence_text = "UGGUCGCAGUGAGGAUAUCCAGUCUAGGCACACGGAGAAGGCACGCGACAUGAGGAUCACCCAUGUAGACGAUAUGCUCCAGGU"
property_label = "apparent Kd"
numeric_result = 22.1

[[record]]
sequence_text = "UAUUUGUUGAAGAAGGAGCGUACAUGAGGAUCACCCAUGUCCAACGUCUACGCGGGUUAUGUUAGCUAGGAUAUUCCGAAAUGG"
property_label = "apparent Kd"
numeric_result = 28.3


Provide the reported apparent Kd (system: MS2 coat protein) for `UCGUCAUUGAACAGCACAUGAGGAUCACCCAUGUUUAGAUCUAGAAGGCCUUUCUCGAAGACCCAGGAGGAUAUAGUGAAGUGG`
21.8

Give the observed apparent Kd of `UCGUGCAGAUAGGAUAUAUAGUCACUGUCGUCUAUAGAAGGAUCUACAUGAGGAUCACCCAUGUAAUGUGAGUC` for MS2 coat protein.
132
